system_under_test: human HDAC1 (Homo sapiens)
Sequence (Q13547 whole entry): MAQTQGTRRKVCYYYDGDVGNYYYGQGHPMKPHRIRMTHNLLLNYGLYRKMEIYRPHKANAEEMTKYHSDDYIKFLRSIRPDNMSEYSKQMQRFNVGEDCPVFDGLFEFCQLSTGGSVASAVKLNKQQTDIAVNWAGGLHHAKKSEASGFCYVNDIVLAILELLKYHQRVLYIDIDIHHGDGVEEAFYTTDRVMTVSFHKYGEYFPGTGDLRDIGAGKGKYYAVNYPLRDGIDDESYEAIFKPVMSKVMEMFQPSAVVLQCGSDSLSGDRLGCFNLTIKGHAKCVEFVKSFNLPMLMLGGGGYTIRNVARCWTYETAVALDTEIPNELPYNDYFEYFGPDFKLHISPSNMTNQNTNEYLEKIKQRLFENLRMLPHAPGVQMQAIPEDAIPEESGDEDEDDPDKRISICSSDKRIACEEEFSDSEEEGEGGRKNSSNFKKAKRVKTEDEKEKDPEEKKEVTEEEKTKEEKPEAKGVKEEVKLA
Non-standard residues stand in square brackets, D forms with d. Residues, ends and D or L forms follow the SMILES beside them. Ala(5-hexenyl) = C=CCCCCC[C@H](N)C(=O)O; Aib = CC(C)(N)C(=O)O
IC50 overview

{"molecule": "C=CCCCCC[C@@H]1NC(=O)[C@H]2CCCN2C(=O)[C@H](Cc2ccccc2)NC(=O)C(C)(C)NC1=O [Ky-17, cyclo(-L-Ae9-Aib-L-Phe-D-Pro-)] (cyclo([Aib]F[dP][Ala(5-hexenyl)]))", "units_label": "nM", "result_comparator": ">", "IC50": 100000}
{"molecule": "CC1(C)NC(=O)[C@H](CCCCCC(=O)COCC(F)(F)F)NC(=O)[C@H]2CCCN2C(=O)[C@H](Cc2ccccc2)NC1=O [Ky-60, cyclo(-L-Ae9(Tfemk)-Aib-L-Phe-D-Pro-)]", "units_label": "nM", "result_comparator": "=", "IC50": 370}
{"molecule": "CC1(C)NC(=O)[C@H](CCCSCC(=O)C(F)(F)F)NC(=O)[C@H]2CCCN2C(=O)[C@H](Cc2ccccc2)NC1=O [Ky-27]", "units_label": "nM", "result_comparator": ">", "IC50": 100000}
{"molecule": "CSCCCCC[C@@H]1NC(=O)[C@H]2CCCN2C(=O)[C@H](Cc2ccccc2)NC(=O)C(C)(C)NC1=O [Ky-15, cyclo(-L-Am7(methyl)-Aib-L-Phe-D-Pro-)]", "units_label": "nM", "result_comparator": ">", "IC50": 100000}
{"molecule": "CC(=O)COCCCCC[C@@H]1NC(=O)[C@H]2CCCN2C(=O)[C@H](Cc2ccccc2)NC(=O)C(C)(C)NC1=O [Ky-74, cyclo(-L-Ah7(acetonyl)-Aib-L-Phe-D-Pro-)]", "units_label": "nM", "result_comparator": ">", "IC50": 100000}
{"molecule": "CC1(C)NC(=O)[C@H](CCCCCC(=O)CBr)NC(=O)[C@H]2CCCN2C(=O)[C@H](Cc2ccccc2)NC1=O [Ky-12, cyclo(-L-Ae9(Bmk)-Aib-L-Phe-D-Pro-)]", "units_label": "nM", "result_comparator": "=", "IC50": 62}
{"molecule": "CC1(C)NC(=O)[C@H](CCCCCSCc2cccnc2)NC(=O)[C@H]2CCCN2C(=O)[C@H](Cc2ccccc2)NC1=O [Ky-68]", "units_label": "nM", "result_comparator": "=", "IC50": 400}
{"molecule": "CN(C)CC(=O)CCCCC[C@@H]1NC(=O)[C@H]2CCCN2C(=O)[C@H](Cc2ccccc2)NC(=O)C(C)(C)NC1=O [Ky-14, cyclo(-L-Ae9(Dmamk)-Aib-L-Phe-D-Pro-)]", "units_label": "nM", "result_comparator": "=", "IC50": 20000}
{"molecule": "CSCC(=O)CCCCC[C@@H]1NC(=O)[C@H]2CCCN2C(=O)[C@H](Cc2ccccc2)NC(=O)C(C)(C)NC1=O [Ky-13, cyclo(-L-Ae9(Mtmk)-Aib-L-Phe-D-Pro-)]", "units_label": "nM", "result_comparator": "=", "IC50": 110}
{"molecule": "CC1(C)NC(=O)[C@H](CCCCCSCc2ccccc2)NC(=O)[C@H]2CCCN2C(=O)[C@H](Cc2ccccc2)NC1=O [Ky-69, cyclo(-L-Am7(benzyl)-Aib-L-Phe-D-Pro-)]", "units_label": "nM", "result_comparator": "=", "IC50": 11}
{"molecule": "CC1(C)NC(=O)[C@H](CCCCSCC(=O)C(F)(F)F)NC(=O)[C@H]2CCCN2C(=O)[C@H](Cc2ccccc2)NC1=O [Ky-28]", "units_label": "nM", "result_comparator": "=", "IC50": 83000}

----------
system_under_test: murine HDAC6 (Mus musculus)
Construct: made in house; host or cells: 293T cells (transient transfection, anti-FLAG immunoprecipitation, FLAG peptide elution)
assay_comment: HDAC-inhibiting activity, coumarin-labeled acetylated histone peptide assay
Assay type: biochemical
condition_set: murine HDAC6 from transfected 293T cells; 37° C., 30 minutes
Experimental: In carrying out HDAC-inhibiting activity measurements, HDAC solutions were prepared in the following manner. […] HDAC-inhibiting activity evaluation in each in vitro system was made as follows. […] To the reaction mixture was added 30 μl of trypsin, and the aminomethylcoumarin released by the enzymatic reaction was assayed using a fluorescent plate reader. […]
pIC50: −log10 of the molar value. Non-standard residues stand in square brackets, D forms with d. Residues, ends and D or L forms follow the SMILES beside them. Ala(5-hexenyl) = C=CCCCCC[C@H](N)C(=O)O; Aib = CC(C)(N)C(=O)O
quantity_kind: pIC50

{"compound": "CN(C)CC(=O)CCCCC[C@@H]1NC(=O)[C@H]2CCCN2C(=O)[C@H](Cc2ccccc2)NC(=O)C(C)(C)NC1=O [Ky-14, cyclo(-L-Ae9(Dmamk)-Aib-L-Phe-D-Pro-)]", "quantity_kind": "pIC50", "readout_value": "< 4.00"}
{"compound": "C=CCCCCC[C@@H]1NC(=O)[C@H]2CCCN2C(=O)[C@H](Cc2ccccc2)NC(=O)C(C)(C)NC1=O [Ky-17, cyclo(-L-Ae9-Aib-L-Phe-D-Pro-)] (cyclo([Aib]F[dP][Ala(5-hexenyl)]))", "quantity_kind": "pIC50", "readout_value": "< 4.00"}
{"compound": "CC1(C)NC(=O)[C@H](CCCCCCSCC(=O)C(F)(F)F)NC(=O)[C@H]2CCCN2C(=O)[C@H](Cc2ccccc2)NC1=O", "quantity_kind": "pIC50", "readout_value": 4.58}

----------
System: colon cancer cell line KM-12
assay_comment: Human cancer cell line panel, proliferation (sulforhodamine B)
Type: cell-based
condition_set: KM-12, 2 days of cultivation; read-out: 50% inhibitory concentration, proliferation
Text: The characteristics of the human cancer cell proliferation-inhibiting activity of the compounds of the present invention were examined by the “method of evaluating the mechanisms of action of compounds using a panel of human cancer cell lines” as proposed by Yamori et al. (cf. Gan to Kagaku Ryoho (Cancer and Chemotherapy) 29 Suppl. II (2002) and Cancer Chemother. Pharmacol. 52 Suppl. I, S74-79 (2003)). […]
pIC50: −log10 of the molar value.
quantity_kind: pIC50

{"compound": "CC(=O)CSCCCCC[C@@H]1NC(=O)[C@H]2CCCN2C(=O)[C@H](Cc2ccccc2)NC(=O)C(C)(C)NC1=O [Ky-72, cyclo(-L-Am7(acetonyl)-Aib-L-Phe-D-Pro-)]", "readout_value": "≥ 7.00"}

----------
system_under_test: human HDAC4 (Homo sapiens)
Construct: made in house; host or cells: 293T cells (transient transfection, anti-FLAG immunoprecipitation, FLAG peptide elution)
Sequence (P56524 whole entry): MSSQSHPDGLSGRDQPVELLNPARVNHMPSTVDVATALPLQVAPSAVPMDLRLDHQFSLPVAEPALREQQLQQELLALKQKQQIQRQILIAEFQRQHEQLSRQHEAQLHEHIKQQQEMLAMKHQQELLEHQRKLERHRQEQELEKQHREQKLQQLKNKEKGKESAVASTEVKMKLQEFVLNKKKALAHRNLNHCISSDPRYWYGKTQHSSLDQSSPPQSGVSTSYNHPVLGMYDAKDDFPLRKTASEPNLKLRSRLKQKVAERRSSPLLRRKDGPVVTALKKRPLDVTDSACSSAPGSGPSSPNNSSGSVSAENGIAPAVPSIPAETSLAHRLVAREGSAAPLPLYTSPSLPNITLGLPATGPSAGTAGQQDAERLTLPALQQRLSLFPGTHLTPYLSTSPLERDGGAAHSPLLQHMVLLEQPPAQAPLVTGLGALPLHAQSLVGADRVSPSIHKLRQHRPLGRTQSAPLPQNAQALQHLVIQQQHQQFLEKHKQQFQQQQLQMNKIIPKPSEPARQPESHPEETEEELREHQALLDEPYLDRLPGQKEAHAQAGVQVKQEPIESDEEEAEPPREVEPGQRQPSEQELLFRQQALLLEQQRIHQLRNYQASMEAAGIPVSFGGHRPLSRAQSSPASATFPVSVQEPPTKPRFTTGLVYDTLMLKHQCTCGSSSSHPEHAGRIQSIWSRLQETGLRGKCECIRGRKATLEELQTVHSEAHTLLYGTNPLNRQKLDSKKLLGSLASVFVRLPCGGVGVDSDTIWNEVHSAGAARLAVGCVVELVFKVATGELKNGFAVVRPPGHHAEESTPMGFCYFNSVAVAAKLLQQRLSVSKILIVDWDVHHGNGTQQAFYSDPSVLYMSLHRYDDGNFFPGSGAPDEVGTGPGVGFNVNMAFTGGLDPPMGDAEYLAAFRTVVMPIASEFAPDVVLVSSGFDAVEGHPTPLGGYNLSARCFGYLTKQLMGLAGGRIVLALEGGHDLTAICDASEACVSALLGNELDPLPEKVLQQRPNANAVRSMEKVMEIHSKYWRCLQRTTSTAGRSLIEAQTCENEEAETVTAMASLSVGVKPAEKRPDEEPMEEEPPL
Sequence (O15379 whole entry, further chain): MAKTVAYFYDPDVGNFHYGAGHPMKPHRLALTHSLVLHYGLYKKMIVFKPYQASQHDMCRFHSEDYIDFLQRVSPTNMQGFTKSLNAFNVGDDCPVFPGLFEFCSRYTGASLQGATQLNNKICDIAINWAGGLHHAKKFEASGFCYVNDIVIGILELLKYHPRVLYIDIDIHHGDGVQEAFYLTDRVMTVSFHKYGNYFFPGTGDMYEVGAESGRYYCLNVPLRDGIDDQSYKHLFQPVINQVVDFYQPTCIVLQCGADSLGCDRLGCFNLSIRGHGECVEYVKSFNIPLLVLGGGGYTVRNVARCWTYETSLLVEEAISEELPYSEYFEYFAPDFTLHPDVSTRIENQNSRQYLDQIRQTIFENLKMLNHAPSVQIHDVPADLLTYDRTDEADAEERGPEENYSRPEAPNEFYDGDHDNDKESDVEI
assay_comment: HDAC-inhibiting activity, coumarin-labeled acetylated histone peptide assay
Type: biochemical
pIC50: −log10 of the molar value. Non-standard residues stand in square brackets, D forms with d. Residues, ends and D or L forms follow the SMILES beside them. Ala(5-hexenyl) = C=CCCCCC[C@H](N)C(=O)O; Aib = CC(C)(N)C(=O)O
quantity_kind: pIC50

{"compound": "C=CCCCCC[C@@H]1NC(=O)[C@H]2CCCN2C(=O)[C@H](Cc2ccccc2)NC(=O)C(C)(C)NC1=O [Ky-17, cyclo(-L-Ae9-Aib-L-Phe-D-Pro-)] (cyclo([Aib]F[dP][Ala(5-hexenyl)]))", "system_under_test": "human HDAC4 (Homo sapiens)", "quantity_kind": "pIC50", "readout_value": "< 4.00"}

----------
pIC50 overview
system_under_test: murine HDAC6 (Mus musculus)
Sequence (Q9Z2V5 1-1149): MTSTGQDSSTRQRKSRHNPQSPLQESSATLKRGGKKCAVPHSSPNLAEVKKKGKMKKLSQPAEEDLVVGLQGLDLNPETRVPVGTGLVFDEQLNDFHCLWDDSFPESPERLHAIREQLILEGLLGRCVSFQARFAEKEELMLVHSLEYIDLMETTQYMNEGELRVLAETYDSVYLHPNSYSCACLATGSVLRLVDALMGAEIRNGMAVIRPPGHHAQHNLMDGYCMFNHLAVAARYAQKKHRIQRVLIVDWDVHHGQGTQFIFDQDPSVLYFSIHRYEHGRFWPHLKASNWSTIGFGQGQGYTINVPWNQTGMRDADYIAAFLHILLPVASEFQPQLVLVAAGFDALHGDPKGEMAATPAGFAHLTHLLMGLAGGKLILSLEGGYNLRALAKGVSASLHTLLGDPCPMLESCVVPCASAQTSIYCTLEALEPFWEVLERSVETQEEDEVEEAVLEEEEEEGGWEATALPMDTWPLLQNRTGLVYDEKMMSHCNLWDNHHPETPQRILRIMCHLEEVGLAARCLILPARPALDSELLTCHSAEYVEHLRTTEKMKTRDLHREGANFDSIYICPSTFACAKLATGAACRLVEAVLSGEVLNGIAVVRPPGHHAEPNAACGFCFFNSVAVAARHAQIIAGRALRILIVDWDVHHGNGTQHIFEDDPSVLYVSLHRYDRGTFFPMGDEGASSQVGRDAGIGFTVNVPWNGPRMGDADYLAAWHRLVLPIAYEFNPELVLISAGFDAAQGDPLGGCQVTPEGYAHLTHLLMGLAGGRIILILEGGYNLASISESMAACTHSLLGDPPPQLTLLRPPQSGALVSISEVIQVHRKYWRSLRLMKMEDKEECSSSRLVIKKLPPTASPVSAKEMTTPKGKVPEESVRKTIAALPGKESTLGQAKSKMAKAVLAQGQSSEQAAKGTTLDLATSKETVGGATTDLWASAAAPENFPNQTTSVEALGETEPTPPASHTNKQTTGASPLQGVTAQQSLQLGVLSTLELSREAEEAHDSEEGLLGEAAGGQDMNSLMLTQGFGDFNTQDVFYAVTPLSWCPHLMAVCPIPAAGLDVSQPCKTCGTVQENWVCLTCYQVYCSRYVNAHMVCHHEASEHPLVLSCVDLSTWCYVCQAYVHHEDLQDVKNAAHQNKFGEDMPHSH
pIC50: −log10 of the molar value.

{"compound": "CC1(C)NC(=O)[C@H](CCCCSCC(=O)C(F)(F)F)NC(=O)[C@H]2CCCN2C(=O)[C@H](Cc2ccccc2)NC1=O [Ky-28]", "system_under_test": "murine HDAC6 (Mus musculus)", "result_comparator": "<", "pIC50": 4.00}
{"compound": "CC(=O)SCC(=O)CCCCC[C@@H]1NC(=O)[C@H]2CCCN2C(=O)[C@H](Cc2ccccc2)NC(=O)C(C)(C)NC1=O [Ky-18, cyclo(-L-Ae9(Actmk)-Aib-L-Phe-D-Pro-)]", "system_under_test": "murine HDAC6 (Mus musculus)", "result_comparator": "=", "pIC50": 5.37}
{"compound": "CC(=O)COCCCCC[C@@H]1NC(=O)[C@H]2CCCN2C(=O)[C@H](Cc2ccccc2)NC(=O)C(C)(C)NC1=O [Ky-74, cyclo(-L-Ah7(acetonyl)-Aib-L-Phe-D-Pro-)]", "system_under_test": "murine HDAC6 (Mus musculus)", "result_comparator": "<", "pIC50": 4.00}
{"compound": "CC1(C)NC(=O)[C@H](CCCCCC(=O)CBr)NC(=O)[C@H]2CCCN2C(=O)[C@H](Cc2ccccc2)NC1=O [Ky-12, cyclo(-L-Ae9(Bmk)-Aib-L-Phe-D-Pro-)]", "system_under_test": "murine HDAC6 (Mus musculus)", "result_comparator": "=", "pIC50": 6.21}
{"compound": "CSCC(=O)CCCCC[C@@H]1NC(=O)[C@H]2CCCN2C(=O)[C@H](Cc2ccccc2)NC(=O)C(C)(C)NC1=O [Ky-13, cyclo(-L-Ae9(Mtmk)-Aib-L-Phe-D-Pro-)]", "system_under_test": "murine HDAC6 (Mus musculus)", "result_comparator": "=", "pIC50": 4.39}
{"compound": "CC1(C)NC(=O)[C@H](CCCCCSCc2ccccc2)NC(=O)[C@H]2CCCN2C(=O)[C@H](Cc2ccccc2)NC1=O [Ky-69, cyclo(-L-Am7(benzyl)-Aib-L-Phe-D-Pro-)]", "system_under_test": "murine HDAC6 (Mus musculus)", "result_comparator": "=", "pIC50": 6.92}
{"compound": "CC1(C)NC(=O)[C@H](CCCCCC(=O)COCC(F)(F)F)NC(=O)[C@H]2CCCN2C(=O)[C@H](Cc2ccccc2)NC1=O [Ky-60, cyclo(-L-Ae9(Tfemk)-Aib-L-Phe-D-Pro-)]", "system_under_test": "murine HDAC6 (Mus musculus)", "result_comparator": "<", "pIC50": 4.00}
{"compound": "CCOCC(=O)CCCCC[C@@H]1NC(=O)[C@H]2CCCN2C(=O)[C@H](Cc2ccccc2)NC(=O)C(C)(C)NC1=O [Ky-10, cyclo(-L-Ae9(Emk)-Aib-L-Phe-D-Pro-)]", "system_under_test": "murine HDAC6 (Mus musculus)", "result_comparator": "=", "pIC50": 5.08}
{"compound": "CSCCCCC[C@@H]1NC(=O)[C@H]2CCCN2C(=O)[C@H](Cc2ccccc2)NC(=O)C(C)(C)NC1=O [Ky-15, cyclo(-L-Am7(methyl)-Aib-L-Phe-D-Pro-)]", "system_under_test": "murine HDAC6 (Mus musculus)", "result_comparator": "<", "pIC50": 4.00}
{"compound": "CC1(C)NC(=O)[C@H](CCCCCSCc2ccncc2)NC(=O)[C@H]2CCCN2C(=O)[C@H](Cc2ccccc2)NC1=O [Ky-26]", "system_under_test": "murine HDAC6 (Mus musculus)", "result_comparator": "=", "pIC50": 5.85}
{"compound": "CC1(C)NC(=O)[C@H](CCCCCSCc2cccnc2)NC(=O)[C@H]2CCCN2C(=O)[C@H](Cc2ccccc2)NC1=O [Ky-68]", "system_under_test": "murine HDAC6 (Mus musculus)", "result_comparator": "=", "pIC50": 5.43}

Data provenance is patent US8158587B2.
